Each recorded value in this set is attributed to patent US20260042764A1.

# Target or test system: Avi-KRAS G12V (1-169) GppNHp/RAF1 RBD-3xFLAG (52-151) (Homo sapiens, UniProt P01116, G12V)
# Construct: Avi-KRAS G12V (1-169)
# Sequence (P01116 1-169 isoform P01116-2 G12V): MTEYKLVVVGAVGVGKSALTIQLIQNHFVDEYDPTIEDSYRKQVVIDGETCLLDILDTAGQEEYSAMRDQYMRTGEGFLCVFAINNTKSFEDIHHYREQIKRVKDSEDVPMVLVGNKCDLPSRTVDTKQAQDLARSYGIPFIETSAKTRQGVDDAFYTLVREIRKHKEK
# Test method notes: Raf1-KRAS G12V-GppNHP disruption HTRF assay (Biological Example 1)
# Type: binding
# Assay setup: KRAS G12V, GppNHp-loaded; Table 11
Measurement name: IC50

Can you look up IC50 on Avi-KRAS G12V (1-169) GppNHp/RAF1 RBD-3xFLAG (52-151) (Homo sapiens, UniProt P01116, G12V) for "CC(=O)NC1CN(c2nc(OC[C@@]34CCCN3C[C@H](F)C4)nc3c(F)c(-c4ccc(F)c5sc(N)c(C#N)c45)c(C(F)(F)F)cc23)C1" ?
0.1 to 1 µM

State its IC50 on Avi-KRAS G12V (1-169) GppNHp/RAF1 RBD-3xFLAG (52-151) (Homo sapiens, UniProt P01116, G12V): Nc1nc2c(-c3c(C(F)(F)F)cc4c(N5CCCC(O)C5)nc(OCC56CCCN5CCC6)nc4c3F)ccc(F)c2s1 (stereo not drawn)
> 10 µM

// map "CN(c1nc(OC[C@@]23CCCN2C[C@H](F)C3)nc2c(F)c(-c3ccc(F)c4sc(N)c(C#N)c34)c(C(F)(F)F)cc12)C1CC(F)(F)C1" to recorded IC50 (system: Avi-KRAS G12V (1-169) GppNHp/RAF1 RBD-3xFLAG (52-151) (Homo sapiens, UniProt P01116, G12V))
1 to 10 µM

Quick check: IC50 on Avi-KRAS G12V (1-169) GppNHp/RAF1 RBD-3xFLAG (52-151) (Homo sapiens, UniProt P01116, G12V), item "N#Cc1c(N)sc2c(F)ccc(-c3c(C(F)(F)F)cc4c(N(CCO)CCO)nc(OC[C@@]56CCCN5C[C@H](F)C6)nc4c3F)c12" ?
0.1 to 1 µM

Hey, can you go through the list below and give me IC50 for every item?
1. CN(c1nc(OC[C@@]23CCCN2C[C@H](F)C3)nc2c(F)c(-c3ccc(F)c4sc(N)c(C#N)c34)c(C(F)(F)F)cc12)C1(CO)CC1
2. CCN(CCO)c1nc(OC[C@@]23CCCN2C[C@H](F)C3)nc2c(F)c(-c3ccc(F)c4sc(N)c(C#N)c34)c(C(F)(F)F)cc12

1: 0.1 to 1 µM; 2: < 0.1 µM

====

For each entry below, report its pIC50 value.
# Target or test system: Avi-KRAS G12V (1-169) GppNHp/RAF1 RBD-3xFLAG (52-151) (Homo sapiens, UniProt P01116, G12V)
# Construct: Avi-KRAS G12V (1-169)
# Test method notes: Raf1-KRAS G12V-GppNHP disruption HTRF assay (Biological Example 1)
# Format: binding
# Assay setup: KRAS G12V-GppNHp/RAF1 RBD HTRF
pIC50: −log10 of the molar value.

What value of measured pIC50 is listed for N#Cc1c(N)sc2c(F)ccc(-c3c(C(F)(F)F)cc4c(N5CC6OCC5C6F)nc(OC[C@@]56CCCN5C[C@H](F)C6)nc4c3F)c12 (stereo partly drawn) ?
6.00 to 7.00

# batch: return pIC50 for each of the 7 compounds below
1. COC[C@H]1CN(c2nc(OC[C@@]34CCCN3C[C@H](F)C4)nc3c(F)c(-c4ccc(F)c5sc(N)c(C#N)c45)c(C(F)(F)F)cc23)CCO1
2. CC[C@@H]1[C@H](N(C)c2nc(OC[C@@]34CCCN3C[C@H](F)C4)nc3c(F)c(-c4ccc(F)c5sc(N)c(C#N)c45)c(C(F)(F)F)cc23)CCN1C(=O)C1CC1
3. CCC(=O)N1CC[C@@H](N(CC)c2nc(OC[C@@]34CCCN3C[C@H](F)C4)nc3c(F)c(-c4ccc(F)c5sc(N)c(C#N)c45)c(C(F)(F)F)cc23)C1
4. CCC(=O)N1CC[C@@H](N(C)c2nc(OC[C@@]34CCCN3C[C@H](F)C4)nc3c(F)c(-c4ccc(F)c5sc(N)c(C#N)c45)c(C(F)(F)F)cc23)[C@H]1CC
5. N#Cc1c(N)sc2c(F)ccc(-c3c(C(F)(F)F)cc4c(N5CCc6nocc6C5)nc(OC[C@@]56CCCN5C[C@H](F)C6)nc4c3F)c12
6. CCN(c1nc(OC[C@@]23CCCN2C[C@H](F)C3)nc2c(F)c(-c3ccc(F)c4sc(N)c(C#N)c34)c(Cl)cc12)[C@@H]1CCN(C(=O)C2CC2)[C@@H]1C
7. N#Cc1c(N)sc2c(F)ccc(-c3c(C(F)(F)F)cc4c(N5CC6OCC5C6O)nc(OC[C@@]56CCCN5C[C@H](F)C6)nc4c3F)c12 (stereo partly drawn)

1: 6.00 to 7.00; 2: 5.00 to 6.00; 3: 6.00 to 7.00; 4: 5.00 to 6.00; 5: 6.00 to 7.00; 6: 6.00 to 7.00; 7: 6.00 to 7.00
